The measurements presented in this section are drawn from patent US20220125959A1.

test system: PIP tumor and PC3 tumor; experiment: Biodistribution of 125I labeled compounds 17, 18, 26 and 27 in tumor bearing nude mice; type: in vivo; details: 1 h
Observed Property: Biodistribution: PC3 tumor (% ID/g)

Molecule: O=C(O)CC[C@H](NC(=O)N[C@@H](CCCCNC(=O)[C@H](Cc1ccccc1)NC(=O)COc1ccc(C[C@H](NC(=O)[C@H](CCC(=O)O)NC(=O)[C@H](CCC(=O)O)NC(=O)c2ccc([125I])cc2)C(=O)O)cc1)C(=O)O)C(=O)O [[^125I]27]
Observed Property: Biodistribution: PC3 tumor
Numeric Value: 1.99
--
Molecule: O=C(O)CC[C@H](NC(=O)N[C@@H](CCCCNC(=O)[C@H](Cc1ccccc1)NC(=O)COc1ccc(C[C@H](NC(=O)[C@H](CCC(=O)O)NC(=O)c2ccc([125I])cc2)C(=O)O)cc1)C(=O)O)C(=O)O [[^125I]26]
Observed Property: Biodistribution: PC3 tumor
Numeric Value: 2.39
--
Molecule: O=C(O)CC[C@H](NC(=O)N[C@@H](CCCCNC(=O)[C@H](Cc1ccccc1)NC(=O)[C@H](CCC(=O)O)NC(=O)c1ccc([125I])cc1)C(=O)O)C(=O)O [[^125I]17]
Observed Property: Biodistribution: PC3 tumor
Numeric Value: 1.70
--
Molecule: O=C(O)CC[C@H](NC(=O)N[C@@H](CCCCNC(=O)[C@H](Cc1ccccc1)NC(=O)[C@H](CCC(=O)O)NC(=O)[C@H](CCC(=O)O)NC(=O)c1ccc([125I])cc1)C(=O)O)C(=O)O [[^125I]18]
Observed Property: Biodistribution: PC3 tumor
Numeric Value: 2.22
